Recorded below: IC50, system Neuraminidase (Influenza A virus, UniProt B4URF0).
Give your result in µM as a bare value.

Record smiles	Study system	Parameter measured	Measured result
COc1cc(/C=N/NC(=O)C(=O)NCCCN2CCOCC2)cc(OC)c1O	Neuraminidase (Influenza A virus, UniProt B4URF0)	IC50	3.15
COc1ccc(/C=N/NC(=O)C(=O)NCCCN2CCOCC2)cc1OC	Neuraminidase (Influenza A virus, UniProt B4URF0)	IC50	2.37

Return reported IC50 for target or system Neuraminidase (Influenza A virus, UniProt B4URF0), item O=C(NCCCN1CCOCC1)C(=O)N/N=C/c1ccccc1O .
6.48

Specify the recorded IC50 for COc1cc(/C=N/NC(=O)C(=O)NCCCN2CCOCC2)ccc1O , system: Neuraminidase (Influenza A virus, UniProt B4URF0).
Sequence (B4URF0 whole entry): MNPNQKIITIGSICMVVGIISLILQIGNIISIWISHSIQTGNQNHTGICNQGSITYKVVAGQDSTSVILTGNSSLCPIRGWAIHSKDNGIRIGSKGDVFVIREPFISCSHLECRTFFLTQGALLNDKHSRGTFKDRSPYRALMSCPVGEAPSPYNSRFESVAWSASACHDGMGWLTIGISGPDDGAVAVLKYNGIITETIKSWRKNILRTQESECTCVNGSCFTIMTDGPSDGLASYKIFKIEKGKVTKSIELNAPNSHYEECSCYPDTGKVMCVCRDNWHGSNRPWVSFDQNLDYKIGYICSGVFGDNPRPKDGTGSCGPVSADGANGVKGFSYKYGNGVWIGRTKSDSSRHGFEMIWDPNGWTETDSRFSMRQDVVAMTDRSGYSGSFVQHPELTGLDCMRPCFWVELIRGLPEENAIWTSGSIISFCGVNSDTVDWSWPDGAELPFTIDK
4.67

Report its IC50 with Neuraminidase (Influenza A virus, UniProt B4URF0) as the test system: COc1ccccc1/C=N/NC(=O)C(=O)NCCCN1CCOCC1
7.1

Tell me its IC50 on Neuraminidase (Influenza A virus, UniProt B4URF0): COc1cc(/C=N/NC(=O)C(=O)NCCCN2CCOCC2)cc(OC)c1OC
2.61

Please report the measured IC50 for O=C(NCCCN1CCOCC1)C(=O)N/N=C/c1ccc(O)c([N+](=O)[O-])c1 tested on Neuraminidase (Influenza A virus, UniProt B4URF0).
4.37

Values compiled from ChEMBL document CHEMBL4346719.
